# measuredTarget: T1, ProQNTD (FinO domain of ProQ) (Escherichia coli, UniProt P45577 1-130)
# T1 sequence: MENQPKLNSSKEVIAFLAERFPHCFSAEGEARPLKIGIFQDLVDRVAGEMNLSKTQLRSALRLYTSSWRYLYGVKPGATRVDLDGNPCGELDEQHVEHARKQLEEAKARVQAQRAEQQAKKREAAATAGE
# testDetails: EMSA; 25 mM Tris-HCl pH 7.5, 150 mM NaCl, 5% glycerol, 1 mM MgCl2, 1 nM 32P-RNA, 30 min at room temperature; native 6% PAGE in 0.5x TBE at 4 C
# experimentalContext: protein: recombinant; tags: pET-15b construct; label: 32P; terminator hairpin; 5' A4 paired with first four U of U8 tail
measuredAttribute: Kd (nM)
Report the figure in nM without appending any unit label.

Query: Supply measured Kd of cspE81-3' (structured_RNA) RNA: GGCCCUUCUGCUGCAAACGUAAUCGCUCUGUAAGAUACGUCAGCAAGAAUUCAAAACCCGCUUAAUCAGCGGGUUUUUUUU in your reply.
Result: 2.4
